- study.target: HLA-A3303 (Homo sapiens, UniProt P04439, A270S/D185E/E176V/E277Q/E87N/F33T/G231S/H175R/I121M/I218V/I322F/K168Q/L300P/L318F/M331R/P217A/Q86R/Q94H/R138Q/T323A/T345S/T97I/V358M)
- method.notes: Peptide competitive binding assay, HMy2.CIR cells expressing A3303
- applied.conditions: read-out: Affinity
pIC50: −log10 of the molar value. Where no end group is shown, it is not given here.
recorded.endpoint: pIC50

MTKILEPFR [Peptide P102]    > 5.30
DAWEKIRLR [Peptide P104]    > 5.30
MAVFIHNFKR [Peptide P109]    > 5.30
IQNFRVYYR [Peptide P112]    4.82 to 5.30

Exam item: May I ask what pIC50 has been recorded for MVHQPISPR [Peptide P103] ?
Marked response: > 5.30

Exam item: May I ask what pIC50 has been recorded for TFYVDGAASR [Peptide P110] ?
Marked response: > 5.30

====

- study.target: HLA-A0203 (Homo sapiens, UniProt P04439, A173T/D140Y/D185E/D98H/E277Q/G131W/G231S/I119V/I121R/I166T/I218V/L180W/L300P/L318F/N151K/N90K/P208A/P217A/Q86G/Q94H/R138H/R169H/T345S)
- Construct: expressed in transfected cells; host or cells: HMy2.CIR
- method.notes: cell-based
- Type: binding
- applied.conditions: A0203; class from inhibition at 5 and 15 μM of FITC-labeled reference peptide binding; read-out: Affinity
Where no end group is shown, it is not given here.
recorded.endpoint: IC50

SLAEGEIII [Peptide P3]    5 to 15 µM

// next item, IC50 requested
Exam item: May I ask what IC50 has been recorded for GMLMISSAV [Peptide P70] ?
Marked response: < 5 µM

====

- study.target: HLA-A3303 (Homo sapiens, UniProt P04439, A270S/D185E/E176V/E277Q/E87N/F33T/G231S/H175R/I121M/I218V/I322F/K168Q/L300P/L318F/M331R/P217A/Q86R/Q94H/R138Q/T323A/T345S/T97I/V358M)
- method.notes: Peptide competitive binding assay, HMy2.CIR cells expressing A3303
- applied.conditions: A3303; peptide 5 μM vs FITC-labeled reference peptide 300 nM, 24 h, 4°C, flow cytometry
Where no end group is shown, it is not given here.
Quick rule: inhibition at 5 µM of at least 70% means Condition met, below that means Condition not met.

Example entries begin here.
TFYVDGAASR [Peptide P110]    Condition met
MYAPPISGR [Peptide P106]    Condition met

Exam item: In plain terms: is recorded inhibition at 5 µM at least 70% for MAHQPLSPR [Peptide P111] ?
Marked response: Condition met

Exam item: In plain terms: is recorded inhibition at 5 µM at least 70% for IQNFRVYYR [Peptide P112] ?
Marked response: Condition not met

Exam item: In plain terms: is recorded inhibition at 5 µM at least 70% for ATLWCVHQR [Peptide P34] ?
Marked response: Condition not met

Exam item: In plain terms: is recorded inhibition at 5 µM at least 70% for MAVFIHNFKR [Peptide P109] ?
Marked response: Condition not met

====

- study.target: HLA-A0206 (Homo sapiens, UniProt P04439, D140Y/D185E/D98H/E176V/E277Q/F33Y/G131W/G231S/I119V/I121R/I166T/I218V/L300P/L318F/N151K/N90K/P208A/P217A/Q86G/Q94H/R138H/R169H/T345S)
- Construct: expressed in transfected cells; host or cells: HMy2.CIR
- method.notes: Peptide competitive binding assay, HMy2.CIR cells expressing A0206
- applied.conditions: peptide 5 μM vs FITC-labeled reference peptide 300 nM, 24 h, 4°C, flow cytometry
recorded.endpoint: 5-μM inhibition (%)
The figure you give is taken to be in %; do not add the unit.

KIILVAVHV [Peptide P75]    3.69
KVILVAVHV [Peptide P74]    20.64
KIVRMYSPV [Peptide P71]    6.54

// next item, 5-μM inhibition (%) requested
Exam item: May I ask what 5-μM inhibition (%) has been recorded for QIINMWQEV [Peptide P73] ?
Marked response: 25.71

====

- study.target: HLA-A2402 (Homo sapiens, UniProt P04439, D101N/D140Y/D185E/E176V/E190D/F33S/G103R/G107R/I119L/I121M/I306V/K335N/L105A/L180Q/L300P/N151K/N90K/Q86E/Q94H/R106L/R138H/R89G/T104I/T345S/V100E/W191G/Y123F)
- method.notes: cell-based
- Format: binding
- applied.conditions: A2402; peptide 15 μM vs FITC-labeled reference peptide 300 nM, 24 h, 4°C, flow cytometry
recorded.endpoint: 15-μM inhibition (%)
Hi, when you answer, please include the unit after the number. Thanks!

RQGTISFNF [Peptide P61]    41.47%
WYIKIFIII [Peptide P48]    6.91%
HYMLKHLVW [Peptide P55]    31.20%
IYKRWIILGL [Peptide P56]    25.51%
IWGKTPKFRL [Peptide P62]    37.66%

Exam item: May I ask what 15-μM inhibition (%) has been recorded for WYIKIFIMI [Peptide P51] ?
Marked response: 29.97%

====

Attribute: pIC50
- study.target: HLA-A0201 (Homo sapiens, UniProt P04439, D140Y/D185E/D98H/E176V/E277Q/G131W/G231S/I119V/I121R/I166T/I218V/L300P/L318F/N151K/N90K/P208A/P217A/Q86G/Q94H/R138H/R169H/T345S)
- Construct: expressed in transfected cells; host or cells: HMy2.CIR
- method.notes: cell-based
- Type: binding
pIC50: −log10 of the molar value. Where no end group is shown, it is not given here.

ALTDIVPLT [Peptide P12]    4.82 to 5.30

Exam item: May I ask what pIC50 has been recorded for YQYMDDLYV [Peptide P15] ?
Marked response: > 5.30

Exam item: May I ask what pIC50 has been recorded for ALFYKLDIV [Peptide P2] ?
Marked response: 4.82 to 5.30

Exam item: May I ask what pIC50 has been recorded for QLPEKDSWTV [Peptide P14] ?
Marked response: 4.82 to 5.30

====

- study.target: HLA-A0207 (Homo sapiens, UniProt P04439, D140Y/D185E/D98H/E176V/E277Q/G131W/G231S/I119V/I121R/I166T/I218V/L300P/L318F/N151K/N90K/P208A/P217A/Q86G/Q94H/R138H/R169H/T345S/Y123C)
- Construct: expressed in transfected cells; host or cells: HMy2.CIR
- method.notes: Peptide competitive binding assay, HMy2.CIR cells expressing A0207
- applied.conditions: peptide 15 μM vs FITC-labeled reference peptide 300 nM, 24 h, 4°C, flow cytometry
Attribute: 15-μM inhibition (%)
The figure you give is taken to be in %; do not add the unit.

Exam item: May I ask what 15-μM inhibition (%) has been recorded for YVDRFFKTL [Peptide P76] ?
Marked response: 30.60

Exam item: May I ask what 15-μM inhibition (%) has been recorded for YMEAEVIPA [Peptide P82] ?
Marked response: 30.79

Exam item: May I ask what 15-μM inhibition (%) has been recorded for SLFNTVATL [Peptide P10] ?
Marked response: 7.34

Exam item: May I ask what 15-μM inhibition (%) has been recorded for YLKDQKFLGL [Peptide P78] ?
Marked response: 30.40

Exam item: May I ask what 15-μM inhibition (%) has been recorded for VLDVGDAYF [Peptide P81] ?
Marked response: 23.16

====

- study.target: HLA-A1102 (Homo sapiens, UniProt P04439, A114D/D185E/E176A/E43K/F33Y/L180Q/S129P/T187R)
- method.notes: cell-based
- Format: binding
Where no end group is shown, it is not given here.
recorded.endpoint: IC50

Exam item: May I ask what IC50 has been recorded for SILDIRQGPK [Peptide P33] ?
Marked response: 5 to 15 µM

====

- study.target: HLA-A0203 (Homo sapiens, UniProt P04439, A173T/D140Y/D185E/D98H/E277Q/G131W/G231S/I119V/I121R/I166T/I218V/L180W/L300P/L318F/N151K/N90K/P208A/P217A/Q86G/Q94H/R138H/R169H/T345S)
- Construct: expressed in transfected cells; host or cells: HMy2.CIR
- method.notes: cell-based
- Format: binding
- applied.conditions: A0203; peptide 5 μM vs FITC-labeled reference peptide 300 nM, 24 h, 4°C, flow cytometry; read-out: 5-μM inhibition (%)
Where no end group is shown, it is not given here.
recorded.endpoint: inhibition at 5 µM (%)
The figure you give is taken to be in %; do not add the unit.

Look over these answered cases.
ALFYKLDIV [Peptide P2]    26.1
SLAEGEIII [Peptide P3]    0.12
RLINCNTSV [Peptide P6]    15.8

Exam item: May I ask what inhibition at 5 µM has been recorded for GMLMISSAV [Peptide P70] ?
Marked response: 71.4

Exam item: May I ask what inhibition at 5 µM has been recorded for SLVDTIAIAV [Peptide P1] ?
Marked response: 28.2

Exam item: May I ask what inhibition at 5 µM has been recorded for IIFAVLSIV [Peptide P5] ?
Marked response: 31
